These measurements were taken from ChEMBL document CHEMBL3739271.

Test system: NCI-H522
Assay: Cytotoxicity against human NCI-H522 cells by SRB assay
Assay type: functional
Binary call on GI50 with cut-off 90 nM: strictly below means TRUE, and equality or higher means FALSE.

[
  {
    "compound": "COc1ccc(/C=C(\\C#N)c2ccc(OC)c(OC)c2)cc1O",
    "classAssignment": "TRUE"
  },
  {
    "compound": "COc1cc(/C=C(\\C#N)c2cc(OC)c(OC)c(OC)c2)cc(OC)c1",
    "classAssignment": "FALSE"
  },
  {
    "compound": "COc1ccc(/C=C(/C#N)c2cc(OC)c(OC)c(OC)c2)cc1O",
    "classAssignment": "TRUE"
  },
  {
    "compound": "COc1ccc(/C=C(\\C#N)c2cc(OC)c(OC)c(OC)c2)cc1O",
    "classAssignment": "TRUE"
  },
  {
    "compound": "COc1ccc(/C=C\\c2cc(OC)c(OC)c(OC)c2)cc1O [COMBRETASTATIN A4]",
    "classAssignment": "TRUE"
  },
  {
    "compound": "COc1ccc(/C=C(\\C#N)c2cc(OC)c(OC)c(OC)c2)cc1",
    "classAssignment": "TRUE"
  },
  {
    "compound": "COc1ccc(/C=C/c2cc(OC)cc(OC)c2/C=C(\\C#N)c2ccccc2OC)cc1",
    "classAssignment": "FALSE"
  },
  {
    "compound": "COc1ccc(/C=C/c2cc(OC)cc(OC)c2/C=C(\\C#N)c2ccc(OC)cc2)cc1",
    "classAssignment": "FALSE"
  },
  {
    "compound": "COc1ccc(/C=C(/C#N)c2ccc(OC)c(OC)c2)cc1O",
    "classAssignment": "TRUE"
  }
]

* * *

As shown below, each of these compounds has a reported GI50 value.
Assay: Cytotoxicity against human SNB19 cells by SRB assay
Type: functional
Conditions: SNB-19
quantity: GI50 (nM)

[
  {
    "smilesText": "COc1ccc(/C=C/c2cc(OC)cc(OC)c2/C=C(\\C#N)c2ccc(OC)cc2)cc1",
    "quantity": "GI50",
    "valueModifier": ">",
    "resultValue": 100000
  },
  {
    "smilesText": "COc1cc(/C=C(\\C#N)c2cc(OC)c(OC)c(OC)c2)cc(OC)c1",
    "quantity": "GI50",
    "valueModifier": "=",
    "resultValue": 5460
  },
  {
    "smilesText": "COc1ccc(/C=C(/C#N)c2ccc(OC)c(OC)c2)cc1O",
    "quantity": "GI50",
    "valueModifier": "=",
    "resultValue": 40
  },
  {
    "smilesText": "COc1ccc(/C=C(/C#N)c2cc(OC)c(OC)c(OC)c2)cc1O",
    "quantity": "GI50",
    "valueModifier": "<",
    "resultValue": 10
  },
  {
    "smilesText": "COc1ccc(/C=C\\c2cc(OC)c(OC)c(OC)c2)cc1O",
    "quantity": "GI50",
    "valueModifier": "=",
    "resultValue": 4
  },
  {
    "smilesText": "COc1ccc(/C=C(\\C#N)c2cc(OC)c(OC)c(OC)c2)cc1O",
    "quantity": "GI50",
    "valueModifier": "<",
    "resultValue": 10
  },
  {
    "smilesText": "COc1ccc(/C=C(\\C#N)c2cc(OC)cc(OC)c2)cc1",
    "quantity": "GI50",
    "valueModifier": "=",
    "resultValue": 980
  },
  {
    "smilesText": "COc1ccc(/C=C(\\C#N)c2ccc(OC)c(OC)c2)cc1O",
    "quantity": "GI50",
    "valueModifier": "=",
    "resultValue": 50
  },
  {
    "smilesText": "COc1ccc(/C=C/c2cc(OC)cc(OC)c2/C=C(\\C#N)c2ccccc2OC)cc1",
    "quantity": "GI50",
    "valueModifier": "=",
    "resultValue": 8770
  },
  {
    "smilesText": "COc1ccc(/C=C(\\C#N)c2cc(OC)c(OC)c(OC)c2)cc1",
    "quantity": "GI50",
    "valueModifier": "=",
    "resultValue": 60
  }
]

* * *

System: 786-0
Assay: Cytotoxicity against human 786-0 cells by SRB assay
Format: functional
# note: exactly 200 nM is not below, so it is no (0); use yes (1) for GI50 strictly under it

[
  {
    "smilesText": "COc1ccc(/C=C(/C#N)c2ccc(OC)c(OC)c2)cc1O",
    "classAssignment": "no (0)"
  },
  {
    "smilesText": "COc1ccc(/C=C(\\C#N)c2cc(OC)cc(OC)c2)cc1",
    "classAssignment": "no (0)"
  },
  {
    "smilesText": "COc1ccc(/C=C/c2cc(OC)cc(OC)c2/C=C(\\C#N)c2ccc(OC)cc2)cc1",
    "classAssignment": "no (0)"
  },
  {
    "smilesText": "COc1ccc(/C=C/c2cc(OC)cc(OC)c2/C=C(\\C#N)c2ccccc2OC)cc1",
    "classAssignment": "no (0)"
  },
  {
    "smilesText": "COc1cc(/C=C(\\C#N)c2cc(OC)c(OC)c(OC)c2)cc(OC)c1",
    "classAssignment": "no (0)"
  },
  {
    "smilesText": "COc1ccc(/C=C(\\C#N)c2ccc(OC)c(OC)c2)cc1O",
    "classAssignment": "no (0)"
  },
  {
    "smilesText": "COc1ccc(/C=C(\\C#N)c2cc(OC)c(OC)c(OC)c2)cc1O",
    "classAssignment": "yes (1)"
  },
  {
    "smilesText": "COc1ccc(/C=C\\c2cc(OC)c(OC)c(OC)c2)cc1O",
    "classAssignment": "yes (1)"
  },
  {
    "smilesText": "COc1ccc(/C=C(\\C#N)c2cc(OC)c(OC)c(OC)c2)cc1",
    "classAssignment": "yes (1)"
  },
  {
    "smilesText": "COc1ccc(/C=C(/C#N)c2cc(OC)c(OC)c(OC)c2)cc1O",
    "classAssignment": "yes (1)"
  }
]

* * *

Test: Cytotoxicity against human HOP92 cells by SRB assay
Assay type: functional
Conditions: HOP-92
Listed below: GI50 values for each entry.
quantity: GI50 (nM)

[
  {
    "smilesText": "COc1ccc(/C=C(/C#N)c2cc(OC)c(OC)c(OC)c2)cc1O",
    "quantity": "GI50",
    "valueModifier": "<",
    "resultValue": 10
  },
  {
    "smilesText": "COc1ccc(/C=C\\c2cc(OC)c(OC)c(OC)c2)cc1O",
    "quantity": "GI50",
    "valueModifier": "=",
    "resultValue": 3
  },
  {
    "smilesText": "COc1ccc(/C=C(\\C#N)c2cc(OC)c(OC)c(OC)c2)cc1",
    "quantity": "GI50",
    "valueModifier": "=",
    "resultValue": 20
  },
  {
    "smilesText": "COc1ccc(/C=C(\\C#N)c2cc(OC)c(OC)c(OC)c2)cc1O",
    "quantity": "GI50",
    "valueModifier": "<",
    "resultValue": 10
  },
  {
    "smilesText": "COc1ccc(/C=C(\\C#N)c2ccc(OC)c(OC)c2)cc1O",
    "quantity": "GI50",
    "valueModifier": "=",
    "resultValue": 1690
  }
]

* * *

Test system: KM12
Test: Cytotoxicity against human KM12 cells by SRB assay
Format: functional
quantity: GI50

[
  {
    "smilesText": "COc1ccc(/C=C(\\C#N)c2cc(OC)c(OC)c(OC)c2)cc1",
    "quantity": "GI50",
    "resultValue": "< 10 nM"
  },
  {
    "smilesText": "COc1ccc(/C=C(\\C#N)c2cc(OC)c(OC)c(OC)c2)cc1O",
    "quantity": "GI50",
    "resultValue": "< 10 nM"
  },
  {
    "smilesText": "COc1ccc(/C=C(/C#N)c2cc(OC)c(OC)c(OC)c2)cc1O",
    "quantity": "GI50",
    "resultValue": "< 10 nM"
  }
]

* * *

Experiment: Cytotoxicity against human HCT116 cells by SRB assay
Type: functional
Details: HCT-116
Measured GI50 accompanies every entry in the list below.
quantity: GI50 (nM)

[
  {
    "molecule": "COc1ccc(/C=C(/C#N)c2ccc(OC)c(OC)c2)cc1O",
    "quantity": "GI50",
    "valueModifier": "=",
    "resultValue": 30
  },
  {
    "molecule": "COc1ccc(/C=C/c2cc(OC)cc(OC)c2/C=C(\\C#N)c2ccccc2OC)cc1",
    "quantity": "GI50",
    "valueModifier": "=",
    "resultValue": 1290
  },
  {
    "molecule": "COc1ccc(/C=C\\c2cc(OC)c(OC)c(OC)c2)cc1O [COMBRETASTATIN A4]",
    "quantity": "GI50",
    "valueModifier": "=",
    "resultValue": 3
  },
  {
    "molecule": "COc1cc(/C=C(\\C#N)c2cc(OC)c(OC)c(OC)c2)cc(OC)c1",
    "quantity": "GI50",
    "valueModifier": "=",
    "resultValue": 6050
  },
  {
    "molecule": "COc1ccc(/C=C(\\C#N)c2cc(OC)c(OC)c(OC)c2)cc1O",
    "quantity": "GI50",
    "valueModifier": "<",
    "resultValue": 10
  }
]
